Overview of recorded k a for various compounds
Biological target: LecA (Pseudomonas aeruginosa, UniProt Q05097)
Construct: made in house; host or cells: E. coli (plasmid pET25-pail)
Sequence (Q05097 whole entry): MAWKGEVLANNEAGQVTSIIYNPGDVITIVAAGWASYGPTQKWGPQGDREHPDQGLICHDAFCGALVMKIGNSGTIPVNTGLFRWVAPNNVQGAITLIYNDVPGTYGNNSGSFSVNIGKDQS
Experiment: Surface plasmon resonance direct LecA binding assay (immobilized LecA)
Design: species or system P. aeruginosa
Settings: SPR, immobilized LecA

- Compound: "CC(C)CC(SSC(CC(C)C)C(=O)Nc1ccc(S[C@@H]2O[C@H](CO)[C@H](O)[C@H](O)[C@H]2O)cc1)C(=O)Nc1ccc(S[C@@H]2O[C@H](CO)[C@H](O)[C@H](O)[C@H]2O)cc1 (stereo partly drawn)"
  Observed Result: "5.2 ± 0.6 ×10^4 M^−1 s^−1"
- Compound: "CC(C)C[C@H](S)C(=O)Nc1ccc(S[C@@H]2O[C@H](CO)[C@H](O)[C@H](O)[C@H]2O)cc1"
  Observed Result: "0.90 ± 0.31 ×10^4 M^−1 s^−1"

Please turn your attention to the following entry.
[Q] Reported k a, compound `O=C(Nc1ccc(S[C@@H]2O[C@H](CO)[C@H](O)[C@H](O)[C@H]2O)cc1)[C@H](S)Cc1ccccc1` : ____
[A] 0.71 ± 0.14 ×10^4 M^−1 s^−1

Ref: paper PMC11339798
